target: TACE (Homo sapiens, UniProt P78536); assay: TACE inhibition (fluorescent peptidyl substrate); type: biochemical; details: read-out: TACE IC50
Sequence (P78536 215-824): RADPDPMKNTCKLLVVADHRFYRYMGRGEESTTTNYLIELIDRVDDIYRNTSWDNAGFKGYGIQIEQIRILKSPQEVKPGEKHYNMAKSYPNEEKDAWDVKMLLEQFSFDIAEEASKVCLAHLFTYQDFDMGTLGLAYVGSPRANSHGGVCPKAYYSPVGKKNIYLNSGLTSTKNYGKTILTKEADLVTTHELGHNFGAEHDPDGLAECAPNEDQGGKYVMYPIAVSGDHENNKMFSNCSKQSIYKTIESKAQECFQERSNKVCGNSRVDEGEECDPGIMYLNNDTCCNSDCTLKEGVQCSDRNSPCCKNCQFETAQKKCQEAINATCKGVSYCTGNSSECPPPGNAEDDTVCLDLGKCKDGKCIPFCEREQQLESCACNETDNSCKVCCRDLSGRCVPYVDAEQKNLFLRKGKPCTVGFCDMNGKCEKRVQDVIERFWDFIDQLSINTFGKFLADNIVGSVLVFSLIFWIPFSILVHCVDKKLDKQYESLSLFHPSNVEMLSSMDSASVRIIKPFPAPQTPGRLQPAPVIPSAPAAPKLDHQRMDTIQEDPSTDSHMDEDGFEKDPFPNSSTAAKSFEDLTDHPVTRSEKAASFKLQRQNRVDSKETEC
pIC50: −log10 of the molar value.
reportedProperty: pIC50

In [3]: df
Out[3]:
                                   compound  qualifiersign  valueobserved
0  COc1ccc(S(=O)(=O)N(Cc2cccnc2)c2c(C)cc(-c3ccc(C(C)=O)s3)cc2C(=O)NO)cc1              =           7.11
1  COc1ccc(S(=O)(=O)N(Cc2ccccc2)c2c(Br)cccc2C(=O)NO)cc1              =           6.00
2  COc1ccc(S(=O)(=O)N(Cc2cccnc2)c2c(COC3CCCCO3)cccc2C(=O)NO)cc1 (stereo not shown)              =           6.25
3  COc1ccc(S(=O)(=O)N(Cc2ccccc2)c2cc(C)ccc2C(=O)NO)cc1              <           6.00
